molecular target: PD1 extracellular domain, without Fc fusion (Homo sapiens, UniProt Q15116); assay: ELISA
Sequence (Q15116 25-170): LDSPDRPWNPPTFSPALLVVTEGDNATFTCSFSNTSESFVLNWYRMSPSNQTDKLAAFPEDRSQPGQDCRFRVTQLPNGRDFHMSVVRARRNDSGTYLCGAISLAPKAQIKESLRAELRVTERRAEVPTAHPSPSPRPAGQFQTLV

| binder | binding result |
| --- | --- |
| M2-1 anti-PD1 antibody (human IgG4/kappa, C-terminal 6xHis) (antibody, V domains shown) VH: QVQLVESGGDVVQPGGSLRLSCSASGLVFRDYGMNWVRQAPGKGLEWVGLIWYDGTKKYYSDFVKGRFTISRDNSKNMLYLQMNNLRAEDTAIYYCARFLIGATRRGNAMDYWGQGTSVIVSS VL: EVVLTQSPATLSLSPGERATLSCRASQSIDSDLAWSQQKTGQPPRLIIYDASNRATGIPARFSGSGSGTDFTLTISSLEPEDFAVYYCQQRSDWPLTFGGGTKVEIR | binds |
| M2-3 anti-PD1 antibody (human IgG4/kappa, C-terminal 6xHis) (antibody, V domains shown) VH: QGHLVESGGDVVLPGGSLRLSCTESGVDLSDFGIHWVRQTPGKGLEWVALIWYDGSKKFYADSVKDRFTISRDNSKNMVYLEMISLRVEDTAMYFCARGIRRGPWFTYWGPGTLVTVST VL: EIVLTQSPVILSLSPGERATLSCRASQSISSDLAWFQQTPGQAPRLIIYDASNRATGIPARFSGSGSGTDFTLTISSLEPEDFAVYYCQQRSNWPLTFGGGTKVEIK | binds |
| M1-6 anti-PD1 antibody (human IgG4/kappa, C-terminal 6xHis) (antibody, V domains shown) VH: QVQLVESGGDVVQSGGSLRLSCAVSGVVFSDYGFEWVRQAPGKGLEWVAVIWYDGSRKHYADSVQGRFTISRDNFRNMLYLQMTGLRVEDTAKYYCTRSHSHEDYWGQGTLVTVSS VL: EIVLTQSPATLSLSPGERATLSCGASQNIDNSLAWFQQKPGQAPRLIIYDASKRATGIPARFSGSGSGTDFTLTISTLEPEDFAVYYCQQRDHWPLNFGGGTKVEVK | binds |
